- Tested on: MFM-223
- measurementDescription: normalised response (% of control), CellTiter-Glo; higher = more viable cells (100 = DMSO, 0 = benzethonium chloride kill control)
- measurementConditions: incubation time: 72 h
Form field: normalised response (one value per entry).
Only the number, expressed in %, is required.

Nc1ncnc2c1c(COc1cccc(Cl)c1)nn2C1CCOCC1 (10 nM); 105
O=C(O)CCCc1ccc(N(CCCl)CCCl)cc1 [Chlorambucil] (10 nM); 108
Cn1c(=O)n(-c2ccc(C(C)(C)C#N)cc2)c2c3cc(-c4cnc5ccccc5c4)ccc3ncc21 [Dactolisib] (100 nM); 39.1
CCCCCCCCc1ccc(CCC(N)(CO)CO)cc1 [Fingolimod] (1000 nM); 107
CO[C@H]1C[C@@H]2CC[C@@H](C)[C@@](O)(O2)C(=O)C(=O)N2CCCC[C@H]2C(=O)O[C@H]([C@H](C)C[C@@H]2CC[C@@H](OCCO)[C@H](OC)C2)CC(=O)[C@H](C)/C=C(\C)[C@@H](O)[C@@H](OC)C(=O)[C@H](C)C[C@H](C)/C=C/C=C/C=C/1C [Everolimus] (10 nM); 62.6
Cc1ccc(NC(=O)c2ccc(CN3CCN(C)CC3)cc2)cc1Nc1nccc(-c2cccnc2)n1 [Imatinib] (1 nM); 108
C/C(=C\c1csc(C)n1)[C@@H]1C[C@@H]2O[C@]2(C)CCC[C@H](C)[C@H](O)[C@@H](C)C(=O)C(C)(C)[C@@H](O)CC(=O)O1 [Patupilone] (100 nM); 86.8
O=C1NC(=O)[C@@H](c2cn3c4c(cccc24)CCC3)[C@@H]1c1c[nH]c2ccccc12 [Tivantinib] (0.1 nM); 103

Query compound follows.
input: Requested read-out: normalised response. Entry: O=C(O)CCCc1ccc(N(CCCl)CCCl)cc1 [Chlorambucil] (1000 nM)
output: 103

---

- System: MDA-MB-436
- measurementDescription: normalised response (% of control), CellTiter-Glo; higher = more viable cells (100 = DMSO, 0 = benzethonium chloride kill control)
- measurementConditions: incubation time: 72 h
propertyMeasured: normalised response
The reply should read as a number followed by its unit.

Would you please look over these solved cases?
C[C@]12CC[C@H](O)CC1=CC[C@@H]1[C@@H]2CC[C@]2(C)C(c3cccnc3)=CC[C@@H]12 [Abiraterone] (500 nM); 96%
Cc1ccc(NC(=O)c2ccc(CN3CCN(C)CC3)cc2)cc1Nc1nccc(-c2cccnc2)n1 [Imatinib] (10 nM); 103%
CC(C)(C#N)c1cc(Cn2cncn2)cc(C(C)(C)C#N)c1 [Anastrozole] (1000 nM); 100%
COc1ccccc1S(=O)(=O)Nc1ccc2c(c1)CN(C)C(=O)N2 [PFI-1] (1 nM); 94.8%

input: Requested read-out: normalised response. Entry: O=C(O)CCCc1ccc(N(CCCl)CCCl)cc1 [Chlorambucil] (1000 nM)
output: 103%

---

- Test system: BT-474
- measurementConditions: 72 h
Form field: EC50, CellTiter-Glo (one value per entry).
Only the number, expressed in nM, is required.

input: Requested read-out: EC50, CellTiter-Glo. Entry: COc1ccc(-c2ccc3c(N4CCOC[C@@H]4C)nc(N4CCOC[C@@H]4C)nc3n2)cc1CO
output: 121

input: Requested read-out: EC50, CellTiter-Glo. Entry: Cn1c(=O)n(-c2ccc(C(C)(C)C#N)cc2)c2c3cc(-c4cnc5ccccc5c4)ccc3ncc21
output: 9.85

input: Requested read-out: EC50, CellTiter-Glo. Entry: CC(C)c1c(C(=O)Nc2ccccc2)c(-c2ccccc2)c(-c2ccc(F)cc2)n1CC[C@@H](O)C[C@@H](O)CC(=O)O
output: 1750
